These data points were gathered from paper PMC5540273.

Tested on: CAMKK1;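 further: KINOMEscan kinase panel screen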
Settings: concentration: 1 μM, replicates: in singlicate; n = 1
%Inh less than 10% is true; %Inh greater than or equal to 10% is false.

# count of solved cases: 3
| smiles str | assay system | discrete label |
| --- | --- | --- |
| O=C(O)C(F)(F)F.O=c1[nH]ccc2nc(N[C@@H]3CCNC3)nc(Nc3cc(Cl)cc(Cl)c3)c12 | CAMKK1 | false |
| CC(C)(C)c1ccc(C(=O)Nc2cn3cc(-n4ccnc4)ccc3n2)cc1 | CAMKK1 | true |
| COc1cccc2c(-c3ccncc3)c(-c3ccc(F)cc3)nn12 | CAMKK1 | true |

Given the entry `COc1ccc(C)c(Nc2ccnc(Nc3ccc(-c4cnc[nH]4)cc3)n2)c1.Cl` , would its reported %Inh be below 10%?
false

Given the entry `CCOc1nccc(-c2c(-c3ccc(F)cc3)ncn2C2CCNCC2)n1` , would its reported %Inh be below 10%?
true
